Test system: DERL-7 (IL-2 2.5 ng/mL)
assay name: drug sensitivity score (DSS) (DSS units); higher = more sensitive; extreme values may be limits of the assay
condition details: 72 h
value kind: drug sensitivity score

compound="CC(C)(C)c1nc(-c2cccc(NS(=O)(=O)c3c(F)cccc3F)c2F)c(-c2ccnc(N)n2)s1 [Dabrafenib] (max concentration tested 2500 nM)" observed_result=1.38
compound="CCCc1cc(C)[nH]c(=O)c1CNC(=O)c1cc(-c2ccnc(N3CCN(C)CC3)c2)cc2c1cnn2C(C)C [GSK343] (max concentration tested 10000 nM)" observed_result=6.76
compound="CN[C@@H](C)C(=O)N[C@H](C(=O)N1CCC[C@H]1c1nc(C(=O)c2ccc(F)cc2)cs1)C1CCCCC1 [LCL161] (max concentration tested 25000 nM)" observed_result=8.62
compound="CC(C)c1c(C(=O)Nc2ccccc2)c(-c2ccccc2)c(-c2ccc(F)cc2)n1CC[C@@H](O)C[C@@H](O)CC(=O)O [Atorvastatin] (max concentration tested 10000 nM)" observed_result=4

----------
Let's look at some compounds and their measured relative IC50.
Tested on: normal primary NK cells, pool 1 (3 donors) (IL-2 2.5 ng/mL)
assay name: relative IC50 (inflection point of fitted viability curve, relative to fitted max inhibition); higher = less sensitive
condition details: 72 h
value kind: relative IC50 (nM)

item_smiles=NC(=S)N/N=C/c1ncccc1N target_entity="normal primary NK cells, pool 1 (3 donors) (IL-2 2.5 ng/mL)" comparison_sign== observed_result=2490
item_smiles=CN[C@@H](C)C(=O)N[C@H]1CN(C(=O)CC(C)C)CC[C@H]2CC[C@@H](C(=O)NC(c3ccccc3)c3ccccc3)N2C1=O target_entity="normal primary NK cells, pool 1 (3 donors) (IL-2 2.5 ng/mL)" comparison_sign== observed_result=1230
item_smiles=Cc1c(CN2CCN(C(=O)[C@H](C)O)CC2)sc2c(N3CCOCC3)nc(-c3cnc(N)nc3)nc12 target_entity="normal primary NK cells, pool 1 (3 donors) (IL-2 2.5 ng/mL)" comparison_sign== observed_result=902
item_smiles=CC(=O)OC[C@H]1O[C@@H]([S-])[C@H](OC(C)=O)[C@@H](OC(C)=O)[C@@H]1OC(C)=O.CCP(CC)CC.[Au+] target_entity="normal primary NK cells, pool 1 (3 donors) (IL-2 2.5 ng/mL)" comparison_sign== observed_result=53.6
item_smiles=Clc1ccc(Nc2nnc(Cc3ccncc3)c3ccccc23)cc1 target_entity="normal primary NK cells, pool 1 (3 donors) (IL-2 2.5 ng/mL)" comparison_sign=> observed_result=10000
item_smiles=C[C@]12O[C@H](C[C@]1(O)CO)n1c3ccccc3c3c4c(c5c6ccccc6n2c5c31)CNC4=O target_entity="normal primary NK cells, pool 1 (3 donors) (IL-2 2.5 ng/mL)" comparison_sign== observed_result=20.9
item_smiles=COc1nc(N)nc2c1ncn2[C@@H]1O[C@H](CO)[C@@H](O)[C@@H]1O target_entity="normal primary NK cells, pool 1 (3 donors) (IL-2 2.5 ng/mL)" comparison_sign== observed_result=406

----------
Let's look at some compounds and their measured percent inhibition of viability.
Test system: normal primary NK cells, pool 2 (3 donors) (IL-2 2.5 ng/mL);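 also: normalised to DMSO-only wells as negative and benzethonium chloride as positive control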
assay name: percent inhibition of viability; higher = more inhibition
condition details: 72 h; 10 nM
value kind: percent inhibition of viability (%)

compound="CCn1c(C(=O)N(C2CC2)C2CC2)cc2c3c(ncn3C)c(Nc3cc(C)n(C)n3)nc21 (max concentration tested 10000 nM)" result_unit=% observed_result=-1.43
compound="O=C(O)CC[C@H]1CC[C@@](c2cc(F)ccc2F)(S(=O)(=O)c2ccc(Cl)cc2)CC1 [MK-0752] (max concentration tested 1000 nM)" result_unit=% observed_result=-0.03
compound="Clc1ccc(Nc2nnc(Cc3ccncc3)c3ccccc23)cc1 [Vatalanib] (max concentration tested 10000 nM)" result_unit=% observed_result=-2.12

----------
System: SNK-6 (IL-2 2.5 ng/mL)
assay name: drug sensitivity score (DSS) (DSS units); higher = more sensitive; extreme values may be limits of the assay
condition details: 72 h
value kind: drug sensitivity score

molecule="O=C1NC(=O)[C@@H](c2cn3c4c(cccc24)CCC3)[C@@H]1c1c[nH]c2ccccc12 [Tivantinib] (max concentration tested 1000 nM)" target_entity="SNK-6 (IL-2 2.5 ng/mL)" value_kind="drug sensitivity score" observed_result=12.9
molecule="Cc1cc([C@@H](C)Nc2ccccc2C(=O)O)c2nc(N3CCOCC3)cc(=O)n2c1 [AZD-6482] (max concentration tested 2500 nM)" target_entity="SNK-6 (IL-2 2.5 ng/mL)" value_kind="drug sensitivity score" observed_result=0.11
molecule="COc1ccc2c(OCc3nnc4ccc(-c5ccccc5)nn34)ccnc2c1 [AMG-208] (max concentration tested 2500 nM)" target_entity="SNK-6 (IL-2 2.5 ng/mL)" value_kind="drug sensitivity score" observed_result=7.74
molecule="Cn1cc(C2=C(c3cn(C4CCN(Cc5ccccn5)CC4)c4ccccc34)C(=O)NC2=O)c2ccccc21 [Enzastaurin] (max concentration tested 10000 nM)" target_entity="SNK-6 (IL-2 2.5 ng/mL)" value_kind="drug sensitivity score" observed_result=0.12
molecule="O=C(NC[C@H](O)CO)c1ccncc1Nc1ccc(I)cc1F [Pimasertib] (max concentration tested 10000 nM)" target_entity="SNK-6 (IL-2 2.5 ng/mL)" value_kind="drug sensitivity score" observed_result=0
molecule="CCn1c(C(=O)N(C2CC2)C2CC2)cc2c3c(ncn3C)c(Nc3cc(C)n(C)n3)nc21 (max concentration tested 10000 nM)" target_entity="SNK-6 (IL-2 2.5 ng/mL)" value_kind="drug sensitivity score" observed_result=0
molecule="CC1(C)CCC(c2ccc(Cl)cc2)=C(CN2CCN(c3ccc(C(=O)NS(=O)(=O)c4ccc(N[C@H](CCN5CCOCC5)CSc5ccccc5)c(S(=O)(=O)C(F)(F)F)c4)cc3)CC2)C1 [Navitoclax] (max concentration tested 10000 nM)" target_entity="SNK-6 (IL-2 2.5 ng/mL)" value_kind="drug sensitivity score" observed_result=39.8
molecule="O=C(Nc1cc(Cl)cc2c1[nH]c1cnccc12)c1cccnc1 [PS-1145] (max concentration tested 25000 nM)" target_entity="SNK-6 (IL-2 2.5 ng/mL)" value_kind="drug sensitivity score" observed_result=1.45
molecule="N#CCNC(=O)c1ccc(-c2ccnc(Nc3ccc(N4CCOCC4)cc3)n2)cc1 [Momelotinib] (max concentration tested 10000 nM)" target_entity="SNK-6 (IL-2 2.5 ng/mL)" value_kind="drug sensitivity score" observed_result=11.5
molecule="O=P1(NCCCl)OCCCN1CCCl (configuration not stated) [Ifosfamide] (max concentration tested 10000 nM)" target_entity="SNK-6 (IL-2 2.5 ng/mL)" value_kind="drug sensitivity score" observed_result=0
molecule="CC(C)c1c(C(=O)Nc2ccccc2)c(-c2ccccc2)c(-c2ccc(F)cc2)n1CC[C@@H](O)C[C@@H](O)CC(=O)O [Atorvastatin] (max concentration tested 10000 nM)" target_entity="SNK-6 (IL-2 2.5 ng/mL)" value_kind="drug sensitivity score" observed_result=2.14
molecule="NS(=O)(=O)OC[C@@H]1C[C@@H](n2ccc3c(N[C@H]4CCc5ccccc54)ncnc32)C[C@@H]1O [Pevonedistat] (max concentration tested 10000 nM)" target_entity="SNK-6 (IL-2 2.5 ng/mL)" value_kind="drug sensitivity score" observed_result=29
molecule="Cc1ccc(C(=O)Nc2ccc(CN3CCN(C)CC3)c(C(F)(F)F)c2)cc1C#Cc1cnc2cccnn12 [Ponatinib] (max concentration tested 1000 nM)" target_entity="SNK-6 (IL-2 2.5 ng/mL)" value_kind="drug sensitivity score" observed_result=0
molecule="Cc1c(N)nc([C@H](CC(N)=O)NC[C@H](N)C(N)=O)nc1C(=O)N[C@H](C(=O)N[C@H](C)[C@@H](O)[C@H](C)C(=O)N[C@H](C(=O)NCCc1nc(-c2nc(C(=O)NCCC[S+](C)C)cs2)cs1)[C@@H](C)O)[C@@H](OC1OC(CO)C(O)C(O)C1OC1OC(CO)C(O)C(OC(N)=O)C1O)c1cnc[nH]1 (some centres not stated) [Bleomycin] (max concentration tested 10000 nM)" target_entity="SNK-6 (IL-2 2.5 ng/mL)" value_kind="drug sensitivity score" observed_result=27.6
molecule="Cn1c(=O)n(-c2ccc(C(C)(C)C#N)cc2)c2c3cc(-c4cnc5ccccc5c4)ccc3ncc21 [Dactolisib] (max concentration tested 1000 nM)" target_entity="SNK-6 (IL-2 2.5 ng/mL)" value_kind="drug sensitivity score" observed_result=8.78
molecule="C[C@]12C=CC(=O)C=C1CC[C@@H]1[C@@H]2[C@@H](O)C[C@@]2(C)[C@H]1CC[C@]2(O)C(=O)CO [Prednisolone] (max concentration tested 10000 nM)" target_entity="SNK-6 (IL-2 2.5 ng/mL)" value_kind="drug sensitivity score" observed_result=4.24
molecule="Cc1ccc(Nc2nccc(N(C)c3ccc4c(C)n(C)nc4c3)n2)cc1S(N)(=O)=O [Pazopanib] (max concentration tested 10000 nM)" target_entity="SNK-6 (IL-2 2.5 ng/mL)" value_kind="drug sensitivity score" observed_result=15
molecule="Cn1c(Nc2ccc(C(F)(F)F)cc2)nc2cc(Oc3ccnc(-c4ncc(C(F)(F)F)[nH]4)c3)ccc21 [RAF265] (max concentration tested 1000 nM)" target_entity="SNK-6 (IL-2 2.5 ng/mL)" value_kind="drug sensitivity score" observed_result=1.66
molecule="NC1(c2ccc(-c3nc4ccn5c(=O)[nH]nc5c4cc3-c3ccccc3)cc2)CCC1 [MK-2206] (max concentration tested 1000 nM)" target_entity="SNK-6 (IL-2 2.5 ng/mL)" value_kind="drug sensitivity score" observed_result=0.95
molecule="C=CCN(/C=C1/C(=O)O[C@H](COC)[C@@]2(C)C1=C(O)C(=O)C1=C2[C@H](OC(C)=O)C[C@]2(C)C(=O)CC[C@@H]12)CC=C [Sonolisib] (max concentration tested 10000 nM)" target_entity="SNK-6 (IL-2 2.5 ng/mL)" value_kind="drug sensitivity score" observed_result=0.79
molecule="CC(C)n1cnc2c(NCCc3ccc(O)cc3)nc(-c3csc4ccccc34)nc21 [StemRegenin 1] (max concentration tested 10000 nM)" target_entity="SNK-6 (IL-2 2.5 ng/mL)" value_kind="drug sensitivity score" observed_result=3.24
molecule="CC/C(=C(\\c1ccc(O)cc1)c1ccc(OCCN(C)C)cc1)c1ccccc1 [4-hydroxytamoxifen] (max concentration tested 10000 nM)" target_entity="SNK-6 (IL-2 2.5 ng/mL)" value_kind="drug sensitivity score" observed_result=4.28
